For each of the molecules below, state its ED50 SEPTTR-184 3DC.
# Test system: Zymoseptoria tritici (SEPTTR-184)
# Protocol details: Efficacy of target gene fragments (MgCytB dsRNA tiles) on wheat plants, SEPTTR-184
# Assay type: in vivo
# Measurement conditions: 3DC (curative)

Query: Which measured ED50 SEPTTR-184 3DC value corresponds to MgCytB-T7: 221 bp dsRNA of Zymoseptoria CytB region T7, location 947-1167 (SEQ ID NO:10) (nucleic acid, listed as Zymoseptoria tritici, complementary strand of dsRNA) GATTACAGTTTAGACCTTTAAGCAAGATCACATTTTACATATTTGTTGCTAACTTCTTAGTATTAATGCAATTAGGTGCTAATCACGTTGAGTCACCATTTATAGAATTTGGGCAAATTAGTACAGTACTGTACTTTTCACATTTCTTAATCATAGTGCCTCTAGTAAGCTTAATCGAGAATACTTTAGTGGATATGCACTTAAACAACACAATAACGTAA ?
Result: <3.125 ppm

Query: Next up: MgCytB-T4: 219 bp dsRNA of Zymoseptoria CytB region T4, location 1-219 (SEQ ID NO:7) (nucleic acid, listed as Zymoseptoria tritici, complementary strand of dsRNA) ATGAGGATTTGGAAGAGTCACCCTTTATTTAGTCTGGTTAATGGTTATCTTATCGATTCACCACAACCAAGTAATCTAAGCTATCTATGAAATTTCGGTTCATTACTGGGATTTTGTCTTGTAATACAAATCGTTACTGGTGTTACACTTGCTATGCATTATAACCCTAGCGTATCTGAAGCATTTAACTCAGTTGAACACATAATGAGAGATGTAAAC
Result: <3.125 ppm

These measurements were taken from patent US10392620B2.
